Molecular target: UniProt P21462
Sequence (P21462 1-350): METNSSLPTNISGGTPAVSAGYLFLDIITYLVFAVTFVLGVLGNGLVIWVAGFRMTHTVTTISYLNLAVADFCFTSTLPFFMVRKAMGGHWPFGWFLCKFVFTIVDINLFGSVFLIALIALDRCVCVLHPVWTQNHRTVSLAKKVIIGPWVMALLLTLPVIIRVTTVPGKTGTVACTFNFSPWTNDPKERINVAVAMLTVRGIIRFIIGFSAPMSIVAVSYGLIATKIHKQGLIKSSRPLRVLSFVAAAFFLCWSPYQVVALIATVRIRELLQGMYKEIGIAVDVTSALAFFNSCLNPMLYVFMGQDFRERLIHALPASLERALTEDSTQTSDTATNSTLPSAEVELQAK
Experiment: FPR1 cyclic adenosine monophosphate (cAMP) assay
Details: CHO cells overexpressing human FPR1; forskolin 10 μM, IBMX 200 μM; 30 min at rt; inhibition of cAMP production (HTRF); read-out: hFPR1 cAMP EC50
pEC50: −log10 of the molar value.
Would you kindly list pEC50 for each of these compounds?

INSERT INTO measurements (compound, measuredtarget, reportedmeasurement) VALUES
  ('CP(C)(=O)c1ccccc1-c1cc(F)c(N2CCC[C@@H](NC(=O)Nc3ncc(Cl)cc3F)C2=O)c(F)c1 [Example 20]', 'UniProt P21462', '< 5.00'),
  ('CP(C)(=O)c1ccccc1-c1ccc(N2CCC[C@@H](NC(=O)Nc3ccc(C(F)(F)F)cn3)C2=O)c(F)c1F [Example 12]', 'UniProt P21462', 5.89);

Please turn your attention to the following entry.
get_value(item= CP(C)(=O)c1ccccc1-c1ccc(N2CCC[C@@H](NC(=O)Nc3ncc(C(F)(F)F)cc3F)C2=O)c(F)c1F [Example 18] , readout=pEC50) returns < 5.00
